Consider the following compounds; for each one, report its Growth Rate.
Test system: Fibroblast
Test: Incucyte cell viability with human fibroblast; note: filed as whole numbers so only -1 and 0 and 1 occur
Format: toxicity, cell-based
Details: 6 h, 10 µM, compound concentration 10 uM, replicate number 2, timepoint 6 hours

Sample records with Growth Rate:
Sample Smiles	Result
Nc1ncnc2c1ccn2[C@@H]1O[C@H]([C@H](O)c2ccccc2)[C@@H](O)[C@H]1O	1
CCOc1cn(-c2ccc(F)cc2C)nc1C(=O)Nc1ccc(Oc2ccnc3cc(OC)c(OC)cc23)c(F)c1	1
C[C@H](NC(=O)c1cnc2n1[C@](C)(Cc1ccc(C#N)cc1)C(=O)N2c1cc(Cl)c(F)c(Cl)c1)C(=O)NC1(c2ccccn2)CC1	0

Batch: Growth Rate for all items listed.
1. COc1cc(C(=O)NS(=O)(=O)c2ccccc2C)ccc1Cc1cn(C)c2ccc(NC(=O)OC3CCCC3)cc12
2. CC(C)(C)NC[C@H](O)COc1nsnc1N1CCOCC1
3. COC(=O)C(Cc1ccc(OCCn2c(=O)sc3cc(C(=O)c4ccccc4)ccc32)cc1)C(=O)OC

[0, 0, 0]

Batch: Growth Rate for all items listed.
1. COc1cc2c(cc1NS(=O)(=O)c1ccc(Br)cc1C)n(C)c(=O)n2C
2. C=CC(=O)Nc1ccc2[nH]c(=O)n(C3CCN(Cc4ccc(-c5nc6cc[nH]c(=O)c6cc5-c5ccccc5)cc4)CC3)c2c1

1: 0; 2: 0

====

Tested on: Fibroblast
Assay: Multiplex assay against human fibroblast
Format: toxicity, cell-based
Conditions: 24 h, 10 µM, compound concentration 10 uM, replicate 2
Field 'label' (enum: 1 / -1). Set to 1 when Population Healthy Nuclei (%) is strictly under 60%; else -1.

Compound	Measured Target	Class Assignment
CC(C)CC(=O)Nc1[nH]nc2c1CN(C(=O)C1CCN(C)CC1)C2(C)C [PHA-793887]	Fibroblast	1

# check: Population Healthy Nuclei (%) < 60% for Cc1cccc(CN2CCN(C(c3ccccc3)c3ccc(Cl)cc3)CC2)c1.Cl.Cl (configuration not stated)
-1

# check: Population Healthy Nuclei (%) < 60% for CCc1nn(CCCN2CCN(c3cccc(Cl)c3)CC2)c(=O)n1CCOc1ccccc1.Cl [NEFAZODONE HYDROCHLORIDE]
1

# check: Population Healthy Nuclei (%) < 60% for C=CC(=O)Nc1cccc(Sc2nc(Nc3ccc(N4CCN(C)CC4)cc3)ncc2Cl)c1
1

# check: Population Healthy Nuclei (%) < 60% for COc1cc(Nc2nccc(-c3cnn4nc(OC)ccc34)n2)cc(C(F)(F)F)c1
1

# check: Population Healthy Nuclei (%) < 60% for COc1cc2ncn(-c3cc(OCc4ccccc4C(F)(F)F)c(C(N)=O)s3)c2cc1OC [GW843682X]
-1

# check: Population Healthy Nuclei (%) < 60% for C=CC(=O)Nc1ccc2[nH]c(=O)n(C3CCN(Cc4ccc(-c5nc6cc[nH]c(=O)c6cc5-c5ccccc5)cc4)CC3)c2c1 [Borussertib]
1

# check: Population Healthy Nuclei (%) < 60% for CC1=C(C(=O)Nc2cc3cn[nH]c3cc2F)C(c2ccc(C(F)(F)F)cc2)CC(=O)N1 (configuration not stated)
-1

# check: Population Healthy Nuclei (%) < 60% for O=c1cc(N2CCOCC2)oc2c(-c3cccc4c3sc3ccccc34)cccc12
1

# check: Population Healthy Nuclei (%) < 60% for CC(C)c1noc(N2CCC(COc3ccc(-c4ccc(S(C)(=O)=O)cc4)nc3)CC2)n1 [GSK-1292263]
-1

# check: Population Healthy Nuclei (%) < 60% for CCc1ccc(OCc2ccccc2C(=O)Nc2ccc3nc(C)cc(N)c3c2)cc1.Cl
1

# check: Population Healthy Nuclei (%) < 60% for O=C(c1cc2c(cc1F)OC(c1ccc(F)cc1)(c1ccc(Cl)cc1Cl)O2)N1CCOCC1 (configuration not stated)
-1

# check: Population Healthy Nuclei (%) < 60% for CC(C)NC(=O)N1CC[C@H](NC2=Nc3cc(F)ccc3N(CC(F)F)c3ccc(Cl)cc32)C1
-1
